# test: Clinical test in humans, single 30-min i.v. infusion, plasma PK
# Assay type: in vivo
# experimental.setup: human, in vivo, iv, single 30-min i.v. infusion 400 μg/kg, GM, read-out: AUC0-24
Ends that are not written are not given here.

| substance | AUC(0-t) |
| --- | --- |
| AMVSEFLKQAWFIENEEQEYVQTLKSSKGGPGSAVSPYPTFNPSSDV-NH2 [Peptide 1] | 4840 ng·h/mL |

* * *

# test: Clinical test in humans, three 30-min i.v. infusions 8 hours apart, plasma PK
# Assay type: in vivo
# experimental.setup: human, plasma, iv, 200 μg/kg, three 30-min i.v. infusions 8 h apart, 200 μg/kg each, mean, read-out: Cmax2
Ends that are not written are not given here.

| substance | unit.descriptor | Cmax |
| --- | --- | --- |
| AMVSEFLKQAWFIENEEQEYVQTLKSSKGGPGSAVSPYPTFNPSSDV-NH2 [Peptide 1] | ng/mL | 2050 |

* * *

# test: Clinical test in humans, three 30-min i.v. infusions 8 hours apart, plasma PK
# Format: in vivo
# experimental.setup: human, in vivo, iv, three 30-min i.v. infusions 8 h apart, 140 μg/kg each, GM, read-out: AUC0-t3
# Method: A total of 8 subjects were included in each group. In each group, 6 subjects received the active treatment and 2 received the placebo. […] Plasma samples were analyzed for Peptide 1 using validated Liquid chromatography—Tandem Mass spectrometry (LC-MS/MS) methods by Charles River Laboratories (CRL). […]
Ends that are not written are not given here.

| substance | AUC |
| --- | --- |
| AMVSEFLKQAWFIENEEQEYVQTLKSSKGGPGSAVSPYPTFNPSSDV-NH2 [Peptide 1] | 1570 ng·h/mL |

* * *

# test: PK after single intravenous injection of Peptide 1 in male rats
# Parameters: species or system male Wistar (CRL: WI(Han)) rats
# experimental.setup: rat, in vivo, iv, 1 mg/kg, single IV 1.0 mg/kg, terminal elimination phase, read-out: Vz
Ends that are not written are not given here.
parameter.measured: Vd (L/kg)

| substance | parameter.measured | observed.measurement |
| --- | --- | --- |
| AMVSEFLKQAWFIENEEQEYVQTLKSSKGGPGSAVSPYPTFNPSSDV-NH2 [Peptide 1] | Vd | 0.116 |

* * *

# test: 14-day repeat dose IV toxicity study with toxicokinetic evaluation on Day 1 and Day 14 in rats
# Type: in vivo, Wistar rats
# experimental.setup: rat, in vivo, iv, 10 mg/kg/day, IV 10 mg/kg/day, female, Day 1, read-out: T1/2
Ends that are not written are not given here.
parameter.measured: half-life (min)

| substance | observed.measurement |
| --- | --- |
| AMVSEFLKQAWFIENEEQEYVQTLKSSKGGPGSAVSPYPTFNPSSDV-NH2 [Peptide 1] | 7.16 |

* * *

# test: Clinical test in humans, three 30-min i.v. infusions 8 hours apart, plasma PK
# Format: in vivo
# experimental.setup: human, in vivo, iv, 250 ug/kg, three 30-min i.v. infusions 8 h apart, 250 μg/kg each, GM, read-out: AUC0-tau1
# Protocol: A total of 8 subjects were included in each group. In each group, 6 subjects received the active treatment and 2 received the placebo. […] Plasma samples were analyzed for Peptide 1 using validated Liquid chromatography—Tandem Mass spectrometry (LC-MS/MS) methods by Charles River Laboratories (CRL). […]
Ends that are not written are not given here.

| substance | AUC |
| --- | --- |
| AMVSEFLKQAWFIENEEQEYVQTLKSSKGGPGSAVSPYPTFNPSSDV-NH2 [Peptide 1] | 2590 ng·h/mL |

These data points were gathered from patent US20250345392A1.
